Data credit: the supplement of paper PMC8975748

Exercise: for every item that follows, state its recorded z-score of subpopulation abundance.
tested on: Saccharomyces cerevisiae BY4741 SeMeCo community; assay: z-score of subpopulation abundance vs DMSO median, subpopulation auxotrophic for HLM; higher = larger share of this subpopulation than in DMSO controls; conditions: 10 µM; 24 h; SM minimal medium; subpopulation (auxotrophy): HLM
Where a name gives a salt, the structure may show the parent alone.
Output spec: single numeric token, no unit.

## Task Which z-score of subpopulation abundance value belongs to "O=C(Nc1c(Cl)cncc1Cl)c1ccc(OC(F)F)c(OCC2CC2)c1" ?
## Result -0.77

## Task Need z-score of subpopulation abundance of "CC(=O)NC[C@H]1CN(c2ccc(N3CCOCC3)c(F)c2)C(=O)O1" , thanks.
## Result -0.75

## Task Report z-score of subpopulation abundance for CCc1cc(C(N)=S)ccn1 [Ethionamide] please.
## Result -0.28

## Task Sample CO/N=C(\C(=O)N[C@@H]1C(=O)N2C(C(=O)O)=C(CSC(=O)c3ccco3)CS[C@H]12)c1csc(N)n1 [Ceftiofur HCl] — what was its z-score of subpopulation abundance?
## Result 0.11

## Task Would you mind telling me what z-score of subpopulation abundance value was observed for COc1cc([C@@H]2c3cc4c(cc3[C@@H](O[C@@H]3O[C@@H]5CO[C@@H](C)O[C@H]5[C@H](O)[C@H]3O)[C@H]3COC(=O)[C@H]23)OCO4)cc(OC)c1O [Etoposide] ?
## Result 0.66

## Task For the compound C1CCN2C[C@@H]3C[C@@H](CN4CCCC[C@@H]34)[C@H]2C1 [(-)-Sparteine Sulfate] , what z-score of subpopulation abundance is on record?
## Result -0.86

## Task z-score of subpopulation abundance for CCCCC(=O)O[C@H]1CC[C@H]2[C@@H]3CCc4cc(O)ccc4[C@H]3CC[C@]12C [Estradiol valerate] ?
## Result -0.87

## Task Request the reported z-score of subpopulation abundance associated with CNCC[C@H](Oc1cccc2ccccc12)c1cccs1 [Duloxetine]
## Result -0.37

----------
system: Saccharomyces cerevisiae BY4741 SeMeCo community; assay: z-score of subpopulation abundance vs DMSO median, subpopulation auxotrophic for U; higher = larger share of this subpopulation than in DMSO controls; settings: 10 µM; 24 h; SM minimal medium; subpopulation (auxotrophy): U
Structures can show the parent of a compound that is named as a salt.
I'd be grateful if you could share measured z-score of subpopulation abundance for these entries.

## Task Param item = NC[C@@H]1O[C@H](O[C@H]2[C@@H](O)[C@H](O[C@@H]3[C@@H](O)[C@H](N)C[C@H](N)[C@H]3O[C@H]3O[C@H](CO)[C@@H](O)[C@H](O)[C@H]3N)O[C@@H]2CO)[C@H](N)[C@@H](O)[C@@H]1O [Paromomycin Sulfate] ; retrieve measured z-score of subpopulation abundance.
## Result -0.06

## Task Which z-score of subpopulation abundance is listed for CC1CCc2c(N3CCC(O)CC3)c(F)cc3c(=O)c(C(=O)O)cn1c23 (configuration not stated) ?
## Result 0.05

## Task # query: z-score of subpopulation abundance of entry NC(=N\CCCCCC/N=C(N)/N=C(\N)Nc1ccc(Cl)cc1)/N=C(\N)Nc1ccc(Cl)cc1 [Chlorhexidine diacetate]
## Result -0.99

## Task z-score of subpopulation abundance for NC(=O)N1c2ccccc2C=Cc2ccccc21 [Carbamazepine] ?
## Result 0.01

## Task Returns the measured z-score of subpopulation abundance for the input compound. Input: O=C1N=C(O)NC1(c1ccccc1)c1ccccc1 [Phenytoin Sodium]
## Result 1.21

## Task Look up z-score of subpopulation abundance for this compound: "COc1ccc2c(c1)c(CC(=O)OCC(=O)O)c(C)n2C(=O)c1ccc(Cl)cc1"
## Result -0.02

## Task Item "COc1ccc(CNc2nc(N3CCC[C@H]3CO)ncc2C(=O)NCc2ncccn2)cc1Cl" has what recorded z-score of subpopulation abundance?
## Result 0.68
